- assaySystem: PAO in bovine plasma (Bos taurus, UniProt Q29437)
- Construct: crude bovine plasma can be used as enzyme source in this assay instead of the purified enzyme; tissue Coesfelder Fleischhandelsgesellschaft, Bernd Grewe (Coesfeld, Germany); host or cells: heparinised bovine blood plasma
- Sequence (Q29437 17-762): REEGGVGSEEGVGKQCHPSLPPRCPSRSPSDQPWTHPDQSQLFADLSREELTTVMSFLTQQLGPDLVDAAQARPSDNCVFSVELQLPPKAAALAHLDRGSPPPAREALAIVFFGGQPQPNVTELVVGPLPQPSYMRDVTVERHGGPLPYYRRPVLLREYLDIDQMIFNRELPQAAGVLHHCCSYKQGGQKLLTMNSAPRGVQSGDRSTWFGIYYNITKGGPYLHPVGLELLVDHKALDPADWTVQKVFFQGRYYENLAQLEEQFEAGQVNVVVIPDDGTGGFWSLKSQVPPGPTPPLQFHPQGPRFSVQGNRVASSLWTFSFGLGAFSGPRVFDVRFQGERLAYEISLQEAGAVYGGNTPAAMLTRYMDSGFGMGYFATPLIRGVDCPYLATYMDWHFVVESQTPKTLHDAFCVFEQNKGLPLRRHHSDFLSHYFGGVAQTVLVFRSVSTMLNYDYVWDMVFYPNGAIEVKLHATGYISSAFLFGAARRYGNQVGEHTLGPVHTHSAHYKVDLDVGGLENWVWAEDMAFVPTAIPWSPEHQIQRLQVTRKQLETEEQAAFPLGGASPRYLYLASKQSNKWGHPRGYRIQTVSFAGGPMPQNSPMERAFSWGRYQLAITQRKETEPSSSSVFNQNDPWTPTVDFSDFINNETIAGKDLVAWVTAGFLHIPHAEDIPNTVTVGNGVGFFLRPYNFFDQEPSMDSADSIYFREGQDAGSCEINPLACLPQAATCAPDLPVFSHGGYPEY
- testName: Inhibitor screening without pre-incubation of bovine plasma with the inhibitor (HPLC-UV)
- Assay type: biochemical
- conditionNotes: substrate 8-(5-phenyl-2H-tetrazol-2-yl)octan-1-amine (6); without pre-incubation; n = 3
observationType: pIC50
Scale for pIC50: -log10 of concentration given in mol/L; no unit attached.

The reported pIC50 of the compound NNC(=O)Cc1ccc(-c2ccccc2)cc1 [Compound 16, 2-(4-phenylphenyl)acetohydrazide] was 4.80

###

Each record here notes measured IC50.
- assaySystem: PAO in bovine plasma (Bos taurus)
- Construct: crude bovine plasma can be used as enzyme source in this assay instead of the purified enzyme; tissue Coesfelder Fleischhandelsgesellschaft, Bernd Grewe (Coesfeld, Germany); host or cells: heparinised bovine blood plasma
- Sequence (Q29437 17-762): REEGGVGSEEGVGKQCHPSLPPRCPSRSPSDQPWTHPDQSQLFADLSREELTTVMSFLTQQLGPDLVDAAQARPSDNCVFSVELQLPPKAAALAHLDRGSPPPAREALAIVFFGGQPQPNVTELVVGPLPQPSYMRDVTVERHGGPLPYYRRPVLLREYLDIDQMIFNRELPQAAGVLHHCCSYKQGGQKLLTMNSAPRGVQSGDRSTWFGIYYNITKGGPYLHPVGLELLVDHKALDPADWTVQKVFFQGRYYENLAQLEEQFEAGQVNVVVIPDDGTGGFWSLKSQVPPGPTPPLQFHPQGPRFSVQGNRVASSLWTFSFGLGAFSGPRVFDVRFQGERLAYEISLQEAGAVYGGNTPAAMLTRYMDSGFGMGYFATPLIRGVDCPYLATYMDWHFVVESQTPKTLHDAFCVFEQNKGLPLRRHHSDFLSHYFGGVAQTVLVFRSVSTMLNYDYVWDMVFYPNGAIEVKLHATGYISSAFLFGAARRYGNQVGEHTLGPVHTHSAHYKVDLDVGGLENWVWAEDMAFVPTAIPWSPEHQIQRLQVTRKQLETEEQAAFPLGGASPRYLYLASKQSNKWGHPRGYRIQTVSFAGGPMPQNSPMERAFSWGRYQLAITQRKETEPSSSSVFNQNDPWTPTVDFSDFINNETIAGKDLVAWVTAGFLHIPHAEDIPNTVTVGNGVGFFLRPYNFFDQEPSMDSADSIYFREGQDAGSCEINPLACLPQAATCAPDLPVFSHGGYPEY
- testName: Inhibitor screening without pre-incubation of bovine plasma with the inhibitor (HPLC-UV)
- Type: biochemical
- conditionNotes: substrate benzylamine (7); without pre-incubation of enzyme and inhibitor; n = 3
Report the value in nM with no unit label.

compound	IC50, nM
NNC(=O)Cc1cccc(-c2ccccc2)c1 [Compound 18, 2-(3-Phenylphenyl)acetohydrazide]	620

Consider now this further compound.
The compound NNC(=O)Cc1ccc(-c2ccccc2)cc1 [Compound 16, 2-(4-phenylphenyl)acetohydrazide] , tested on PAO in bovine plasma (Bos taurus), showed IC50 of 290

###

- assaySystem: PAO in bovine plasma (Bos taurus)
- Construct: crude bovine plasma can be used as enzyme source in this assay instead of the purified enzyme; tissue Coesfelder Fleischhandelsgesellschaft, Bernd Grewe (Coesfeld, Germany); host or cells: heparinised bovine blood plasma
- testName: Inhibitor screening with pre-incubation of bovine plasma with the inhibitor (HPLC-UV)
- Type: biochemical
- conditionNotes: substrate hexan-1-amine 4; with pre-incubation of enzyme and inhibitor (15 min, 37 °C); n = 3
Each record here notes measured IC50.
Report the value in nM with no unit label.

compound	measurementUnits	IC50
NNC(=O)Cc1cccc(-c2ccccc2)c1 [Compound 18, 2-(3-Phenylphenyl)acetohydrazide]	nM	380

Consider now this further compound.
The reported IC50 of the compound NNC(=O)Cc1ccc(-c2ccccc2)cc1 [Compound 16, 2-(4-phenylphenyl)acetohydrazide] was 230

###

- assaySystem: purified bovine PAO (Bos taurus)
- Construct: bovine PAO purified from bovine plasma; purchased Abnova, Taipei, Taiwan delivered via Biozol, Eching, Germany; host or cells: bovine plasma
- Sequence (Q29437 17-762): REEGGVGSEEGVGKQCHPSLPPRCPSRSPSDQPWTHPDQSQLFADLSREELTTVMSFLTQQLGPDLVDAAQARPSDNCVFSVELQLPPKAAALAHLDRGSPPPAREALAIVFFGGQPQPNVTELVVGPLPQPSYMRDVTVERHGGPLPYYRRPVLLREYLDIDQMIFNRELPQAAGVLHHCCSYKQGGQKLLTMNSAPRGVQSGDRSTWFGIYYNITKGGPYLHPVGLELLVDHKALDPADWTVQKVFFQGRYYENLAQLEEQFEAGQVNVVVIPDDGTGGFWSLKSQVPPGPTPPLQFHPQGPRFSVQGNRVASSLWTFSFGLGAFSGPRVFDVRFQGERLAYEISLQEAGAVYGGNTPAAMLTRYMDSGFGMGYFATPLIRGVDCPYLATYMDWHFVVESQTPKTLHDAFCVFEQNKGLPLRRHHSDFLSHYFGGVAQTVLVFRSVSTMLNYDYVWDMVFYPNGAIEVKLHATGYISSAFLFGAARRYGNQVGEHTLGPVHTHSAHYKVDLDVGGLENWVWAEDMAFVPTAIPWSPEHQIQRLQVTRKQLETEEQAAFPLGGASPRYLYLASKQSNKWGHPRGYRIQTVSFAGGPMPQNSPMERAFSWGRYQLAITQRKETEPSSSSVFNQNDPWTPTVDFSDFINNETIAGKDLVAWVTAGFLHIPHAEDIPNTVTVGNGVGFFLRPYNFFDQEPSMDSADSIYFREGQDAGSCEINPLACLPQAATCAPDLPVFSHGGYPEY
- testName: Inhibition of purified bovine PAO without pre-incubation (HPLC-UV)
- Assay type: biochemical
- conditionNotes: substrate 3-(5-phenyl-2H-tetrazol-2-yl)propan-1-amine (1), n = 3
observationType: pIC50
Scale for pIC50: -log10 of concentration given in mol/L; no unit attached.

The reported pIC50 of the molecule NNC(=O)Cc1ccc(-c2ccccc2)cc1 [Compound 16, 2-(4-phenylphenyl)acetohydrazide] was 4.28

###

- assaySystem: PAO in bovine plasma (Bos taurus)
- Construct: crude bovine plasma can be used as enzyme source in this assay instead of the purified enzyme; tissue Coesfelder Fleischhandelsgesellschaft, Bernd Grewe (Coesfeld, Germany); host or cells: heparinised bovine blood plasma
- testName: Inhibitor screening without pre-incubation of bovine plasma with the inhibitor (HPLC-UV)
- Assay type: biochemical
- conditionNotes: substrate 4-(5-phenyl-2H-tetrazol-2-yl)butan-1-amine (2); without pre-incubation; n = 3
observationType: IC50

The reported IC50 of the compound NNC(=O)Cc1ccc(-c2ccccc2)cc1 [Compound 16, 2-(4-phenylphenyl)acetohydrazide] was 5.3 µM

###

Each record here notes measured IC50.
- assaySystem: PAO in bovine plasma (Bos taurus, UniProt Q29437)
- Construct: crude bovine plasma can be used as enzyme source in this assay instead of the purified enzyme; tissue Coesfelder Fleischhandelsgesellschaft, Bernd Grewe (Coesfeld, Germany); host or cells: heparinised bovine blood plasma
- Sequence (Q29437 17-762): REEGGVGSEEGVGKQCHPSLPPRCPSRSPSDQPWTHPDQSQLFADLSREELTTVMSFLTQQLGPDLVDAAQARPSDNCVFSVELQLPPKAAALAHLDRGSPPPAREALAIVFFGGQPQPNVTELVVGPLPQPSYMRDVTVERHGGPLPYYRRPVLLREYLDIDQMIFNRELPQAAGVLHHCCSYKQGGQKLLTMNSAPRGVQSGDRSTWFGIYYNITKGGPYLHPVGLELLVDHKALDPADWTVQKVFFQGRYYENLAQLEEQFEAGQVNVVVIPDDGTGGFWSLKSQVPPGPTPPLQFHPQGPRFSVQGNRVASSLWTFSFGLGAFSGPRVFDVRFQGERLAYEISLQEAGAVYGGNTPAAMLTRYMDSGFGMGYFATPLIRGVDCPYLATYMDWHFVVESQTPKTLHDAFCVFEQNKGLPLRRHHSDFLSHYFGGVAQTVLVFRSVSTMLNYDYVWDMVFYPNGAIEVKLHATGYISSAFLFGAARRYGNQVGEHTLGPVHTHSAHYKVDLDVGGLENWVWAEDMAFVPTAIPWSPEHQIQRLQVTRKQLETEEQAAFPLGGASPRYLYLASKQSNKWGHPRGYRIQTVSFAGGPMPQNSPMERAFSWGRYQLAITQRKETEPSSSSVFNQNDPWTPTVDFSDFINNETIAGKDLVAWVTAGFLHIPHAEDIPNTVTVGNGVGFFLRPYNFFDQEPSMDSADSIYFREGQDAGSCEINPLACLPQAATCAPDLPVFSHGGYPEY
- testName: Inhibitor screening without pre-incubation of bovine plasma with the inhibitor (HPLC-UV)
- Type: biochemical
- conditionNotes: substrate hexan-1-amine 4; without pre-incubation of enzyme and inhibitor; n = 3
- Procedure: Determination of the IC50-values of the PAO inhibitor 2-(4-phenylphenyl)acetohydrazide (16) with bovine plasma using different substrates. General procedure for inhibitor screening without pre-incubation of bovine plasma with the inhibitor. […] An aliquot of the supernatant (150 µL) was diluted with aqueous TRIS buffer (100 mM, pH 8.5 at 20 °C) (150 µL), allowed to stand at room temperature for 30 min, and analysed by HPLC. […]
Report the value in µM with no unit label.

compound	measurementUnits	IC50
NNC(=O)Cc1ccc(-c2ccccc2)cc1 [Compound 16, 2-(4-phenylphenyl)acetohydrazide]	µM	17

The reported IC50 of the compound NNC(=O)Cc1cccc(-c2ccccc2)c1 [Compound 18, 2-(3-Phenylphenyl)acetohydrazide] was 20
